Origin of the recorded values: patent US11730720B2

In this section, each of the compounds is paired with its reported Ki.
# TARGET DESC: recombinant human ALK5 (TGF-βR1) protein (Homo sapiens, UniProt P36897)
# Sequence (P36897 34-503): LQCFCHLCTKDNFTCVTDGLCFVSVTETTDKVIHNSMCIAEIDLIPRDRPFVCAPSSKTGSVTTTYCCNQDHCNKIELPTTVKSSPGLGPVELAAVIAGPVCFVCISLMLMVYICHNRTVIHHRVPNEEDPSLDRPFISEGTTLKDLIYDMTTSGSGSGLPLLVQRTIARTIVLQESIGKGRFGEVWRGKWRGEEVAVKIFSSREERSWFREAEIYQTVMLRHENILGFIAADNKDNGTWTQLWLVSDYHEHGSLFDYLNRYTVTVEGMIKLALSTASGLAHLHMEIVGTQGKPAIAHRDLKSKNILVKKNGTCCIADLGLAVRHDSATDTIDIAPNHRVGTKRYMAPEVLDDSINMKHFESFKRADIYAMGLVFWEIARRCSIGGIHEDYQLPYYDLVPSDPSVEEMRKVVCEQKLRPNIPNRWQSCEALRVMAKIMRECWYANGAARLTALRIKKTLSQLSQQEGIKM
# ASSAY OVERVIEW: Biochemical ALK5 (TGF-βR1) assay to measure pKi (LANCE Ultra ULight kinase assay)
# APPLIED CONDITIONS: apparent pKi, converted from pIC50 using the Cheng-Prusoff equation
VALUE TYPE: Ki

{"COMPOUND": "Fc1ccc(Cl)cc1-c1n[nH]cc1-c1ccc2ncc(N3CCn4nc(N5CCNCC5)cc4C3)cc2n1", "TEST RESULT": "0.0398 to 0.316 nM"}
{"COMPOUND": "CC1CN(c2cnc3ccc(-c4c[nH]nc4-c4cc(Cl)ccc4F)nc3c2)CC(C)N1CCN (stereo not shown)", "TEST RESULT": "0.0398 to 0.316 nM"}
{"COMPOUND": "Fc1ccc(Cl)cc1-c1n[nH]cc1-c1ccc2ncc(-c3cnc4n3CCNC4)cc2n1", "TEST RESULT": "0.0398 to 0.316 nM"}
{"COMPOUND": "Fc1ccc(-c2n[nH]cc2-c2ccc3ncc(N4CCC(N5CCCC5)CC4)cc3n2)cc1F", "TEST RESULT": "0.398 to 3.16 nM"}
{"COMPOUND": "CNCCn1cc(-c2cnc3ccc(-c4nc[nH]c4-c4cccc(Cl)c4)cc3c2)cn1", "TEST RESULT": "≤ 0.0316 nM"}
{"COMPOUND": "CNC(=O)C1CN(c2cnc3ccc(-c4c[nH]nc4-c4cc(Cl)ccc4F)nc3c2)CCN1C(C)C (racemic)", "TEST RESULT": "0.0398 to 0.316 nM"}
{"COMPOUND": "Fc1ccc(Cl)cc1-c1nc2ccccn2c1-c1ccc2ncc(-c3cn[nH]c3)cc2n1", "TEST RESULT": "0.398 to 3.16 nM"}
{"COMPOUND": "CN(C)C1CC=C(c2cnc3ccc(-c4c[nH]nc4-c4cc(Cl)ccc4F)nc3c2)CC1 (stereo not shown)", "TEST RESULT": "≤ 0.0316 nM"}
{"COMPOUND": "CNC1CCN(c2cnc3ccc(-c4c[nH]nc4-c4cc(Cl)ccc4F)nc3c2)CC1", "TEST RESULT": "0.0398 to 0.316 nM"}
{"COMPOUND": "Fc1cc(F)c(-c2[nH]cnc2-c2ccc3ncc(NCCN4CCNCC4)cc3n2)cc1Cl", "TEST RESULT": "0.0398 to 0.316 nM"}
{"COMPOUND": "Fc1cc(F)c(-c2n[nH]cc2-c2ccc3ncc(NCC4CCCNC4)cc3n2)cc1Cl (stereo not shown)", "TEST RESULT": "0.398 to 3.16 nM"}
{"COMPOUND": "Fc1ccc(Cl)cc1-c1nc2ccccn2c1-c1ccc2ncc(-c3cnc4n3CCNC4)cc2n1", "TEST RESULT": "0.0398 to 0.316 nM"}
{"COMPOUND": "COC(=O)[C@H]1CN(c2cnc3ccc(-c4c[nH]nc4-c4cc(Cl)ccc4F)nc3c2)CCN1C", "TEST RESULT": "0.398 to 3.16 nM"}
{"COMPOUND": "COCc1cccc(-c2n[nH]cc2-c2ccc3ncc(C4=CCC(N(C)C)CC4)cc3n2)c1 (stereo not shown)", "TEST RESULT": "0.0398 to 0.316 nM"}
{"COMPOUND": "Fc1ccc(Cl)cc1-c1[nH]cnc1-c1ccc2ncc(NCC3CCCCN3)cc2n1 (stereo not shown)", "TEST RESULT": "0.398 to 3.16 nM"}
{"COMPOUND": "COCc1cccc(-c2n[nH]cc2-c2ccc3ncc(C4=CCC(N)CC4)cc3n2)c1 (stereo not shown)", "TEST RESULT": "0.398 to 3.16 nM"}

###

# TARGET DESC: recombinant human ALK5 (TGF-βR1) protein (Homo sapiens, UniProt P36897)
# ASSAY OVERVIEW: Biochemical ALK5 (TGF-βR1) assay to measure pKi (LANCE Ultra ULight kinase assay)
# APPLIED CONDITIONS: apparent pKi, converted from pIC50 using the Cheng-Prusoff equation
In this section, each of the compounds is paired with its reported Ki.
VALUE TYPE: Ki

{"COMPOUND": "Fc1ccc(Cl)cc1-c1n[nH]cc1-c1ccc2ncc(NC[C@@H]3CCCN3)cc2n1", "TEST RESULT": "0.0398 to 0.316 nM"}
{"COMPOUND": "Fc1ccc(Cl)cc1-c1n[nH]cc1-c1ccc2ncc(-c3cn4c(n3)CNCC4)cc2n1", "TEST RESULT": "0.0398 to 0.316 nM"}
{"COMPOUND": "CNCCn1cc(-c2cnc3ccc(-c4c[nH]nc4-c4cc(Cl)ccc4F)cc3c2)cn1", "TEST RESULT": "≤ 0.0316 nM"}
{"COMPOUND": "Fc1ccc(Cl)cc1-c1n[nH]cc1-c1ccc2ncc(-c3nc4n(n3)CCNC4)cc2n1", "TEST RESULT": "0.0398 to 0.316 nM"}
{"COMPOUND": "NC1CC=C(c2cnc3ccc(-c4c[nH]nc4-c4cc(Cl)ccc4F)nc3c2)CC1 (centres unmarked)", "TEST RESULT": "0.0398 to 0.316 nM"}
{"COMPOUND": "CNC(=O)[C@@H]1CN(c2cnc3ccc(-c4c[nH]nc4-c4cc(Cl)ccc4F)nc3c2)CCN1", "TEST RESULT": "0.0398 to 0.316 nM"}
{"COMPOUND": "CC(C)N1CC2CN(c3cnc4ccc(-c5c[nH]nc5-c5cc(Cl)ccc5F)nc4c3)CC21 (centres unmarked)", "TEST RESULT": "0.0398 to 0.316 nM"}
{"COMPOUND": "Fc1ccc(Cl)cc1-c1n[nH]cc1-c1ccc2ncc(NCC3CCN3)cc2n1 (centres unmarked)", "TEST RESULT": "0.0398 to 0.316 nM"}

###

# System: TGF-β-stimulated SMAD3 phosphorylation in BEAS-2B cells
# ASSAY OVERVIEW: Cellular ALK5 potency assay, inhibition of TGF-β stimulated pSMAD3 formation in BEAS-2B cells
# Type: cell-based
# APPLIED CONDITIONS: Homo sapiens, inhibition of TGF-β (10 ng/mL) stimulated pSMAD3 formation, 1 hour compound incubation, read-out: BEAS2B pIC50 (converted)
# Protocol: Example 255: Cellular ALK5 Potency Assay to Measure pIC50, Inhibition of TGF-β Stimulated pSMAD3 Formation in BEAS-2B Cells The potency of compounds of the present disclosure for inhibition of TGF-β-stimulated SMAD3 phosphorylation was measured in BEAS-2B cells, a human lung epithelial cell line. […] For the assay, BEAS-2B cells were seeded at 7,500 cells/well (25 μL/well) in a 384-well plate and cultured overnight. […] Data are expressed as pIC50 (negative decadic logarithm IC50) values.

{"COMPOUND": "Fc1ccc(Cl)cc1-c1n[nH]cc1-c1ccc2ncc(-c3ncn4c3CNCC4)cc2n1 [Compound 1-113]", "IC50": "25.1 to 158 nM"}
{"COMPOUND": "COCc1cccc(-c2n[nH]cc2-c2ccc3ncc(N4CCC(N5CCCC5)CC4)cc3n2)c1 [Compound 14-3]", "IC50": "25.1 to 158 nM"}
{"COMPOUND": "Fc1ccc(Cl)cc1-c1nc2ccccn2c1-c1ccc2ncc(N3CCCNCC3)cc2c1 [Compound 19-8]", "IC50": "200 to 1260 nM"}
{"COMPOUND": "CNC1CCN(c2cnc3ccc(-c4c[nH]nc4-c4cc(Cl)ccc4F)nc3c2)CC1 [Compound 1-60]", "IC50": "25.1 to 158 nM"}
{"COMPOUND": "CN1CCN(CC(C)(C)Nc2cnc3ccc(-c4c[nH]nc4-c4cc(Cl)ccc4F)nc3c2)CC1 [Compound 1-9]", "IC50": "200 to 1260 nM"}
{"COMPOUND": "O=C(NCc1ccccc1)[C@H]1CN(c2cnc3ccc(-c4c[nH]nc4-c4cc(Cl)ccc4F)nc3c2)CCN1 [Compound 1-67]", "IC50": "25.1 to 158 nM"}
{"COMPOUND": "CN(C)C1CCN(c2cnc3ccc(-c4c[nH]nc4-c4ccc(F)c(F)c4)nc3c2)C1 (racemic) [Compound 8-5]", "IC50": "25.1 to 158 nM"}
{"COMPOUND": "CC(C)N1CCN(CCNc2cnc3ccc(-c4nc[nH]c4-c4ccc(F)c(F)c4)nc3c2)CC1 [Compound 9-2]", "IC50": "25.1 to 158 nM"}
